target: T1, rat IL-21R expressed on cells (rat); assay: cell ELISA on transfected CHO cells, 13 nM IgG
T1 construct: whole, on cells; Transiently transfected CHO-PA-Dukx cells
recorded_endpoint: A450 at 13 nM Ab in cell ELISA (A450)
API: value field is a number in A450; no unit string.

AbO (antibody, human IgG1, V domains shown, Human IgG1 triple-mutant (L234A, L235A, G237A); Framework limits derived; also called VHP/VL16; VHPTM/VL16) VH: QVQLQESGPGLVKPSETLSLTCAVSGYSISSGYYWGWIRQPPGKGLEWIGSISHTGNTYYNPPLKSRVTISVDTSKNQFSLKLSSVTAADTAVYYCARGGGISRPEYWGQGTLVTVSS VL: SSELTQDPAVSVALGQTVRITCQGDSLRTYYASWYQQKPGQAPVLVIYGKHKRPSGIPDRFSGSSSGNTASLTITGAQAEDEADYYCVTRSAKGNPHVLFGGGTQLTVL ... 1.1
AbC (antibody, human IgG1, V domains shown, Full-length human IgG1 / human lambda, transient, conditioned medium; Framework limits derived; also called VHP/VL11) VH: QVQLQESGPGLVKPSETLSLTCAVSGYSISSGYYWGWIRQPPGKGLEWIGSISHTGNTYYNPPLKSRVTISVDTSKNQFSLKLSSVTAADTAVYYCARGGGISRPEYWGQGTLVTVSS VL: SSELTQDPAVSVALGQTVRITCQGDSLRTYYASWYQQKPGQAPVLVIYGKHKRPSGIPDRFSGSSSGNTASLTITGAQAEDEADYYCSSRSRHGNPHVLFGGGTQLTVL ... 0.999

## Task State the recorded A450 at 13 nM Ab in cell ELISA for this entry: AbA (antibody, human IgG1, V domains shown, Full-length human IgG1 / human lambda, transient, conditioned medium; Framework limits derived; also called VHP/VL2) VH: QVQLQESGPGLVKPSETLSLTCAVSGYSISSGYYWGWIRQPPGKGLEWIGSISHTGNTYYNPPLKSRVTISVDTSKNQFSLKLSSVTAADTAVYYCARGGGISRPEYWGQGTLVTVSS VL: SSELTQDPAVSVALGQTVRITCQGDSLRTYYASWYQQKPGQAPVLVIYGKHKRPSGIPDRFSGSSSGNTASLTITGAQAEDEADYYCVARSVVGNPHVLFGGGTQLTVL
## Result 1.12

## Task Dear colleague, I am looking for the recorded A450 at 13 nM Ab in cell ELISA of the following binder: AbI (antibody, human IgG1, V domains shown, Full-length human IgG1 / human lambda, transient, conditioned medium; Framework limits derived; also called VHP/VL24) VH: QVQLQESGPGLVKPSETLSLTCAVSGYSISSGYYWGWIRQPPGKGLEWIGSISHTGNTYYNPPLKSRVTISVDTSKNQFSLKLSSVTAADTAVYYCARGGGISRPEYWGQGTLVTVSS VL: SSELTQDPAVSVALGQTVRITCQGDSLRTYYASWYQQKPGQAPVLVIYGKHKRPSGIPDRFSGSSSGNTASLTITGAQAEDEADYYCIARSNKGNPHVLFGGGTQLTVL
## Result 1.09

## Task What measured A450 at 13 nM Ab in cell ELISA goes with AbN (antibody, human IgG1, V domains shown, Full-length human IgG1 / human lambda, transient, conditioned medium; Framework limits derived; also called VH6/VL24) VH: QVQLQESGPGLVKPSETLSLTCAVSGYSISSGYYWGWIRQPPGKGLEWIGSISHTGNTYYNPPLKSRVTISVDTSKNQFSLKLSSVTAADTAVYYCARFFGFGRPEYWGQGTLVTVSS VL: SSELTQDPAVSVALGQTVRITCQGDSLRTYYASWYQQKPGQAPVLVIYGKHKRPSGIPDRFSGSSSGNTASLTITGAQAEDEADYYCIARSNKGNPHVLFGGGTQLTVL ?
## Result 0.702
